# Tested on: Staphylococcus aureus
# test_description: Antimicrobial activity against Staphylococcus aureus after 24 hrs by broth microdilution method
# Type: functional
Rule: MIC below 0.5 µg/mL gives condition met, anything at or above gives condition not met.

smiles_representation=C[C@H](NC(=O)[C@@H]1C=CCN1C(=O)[C@H](CC1CCCC1)CN(O)C=O)c1ccccc1 target="Staphylococcus aureus" group_label="condition not met"
smiles_representation=CCCC[C@H](CN(O)C=O)C(=O)N1C[C@@H](F)C[C@H]1C(=O)Nc1ncc(C)s1 target="Staphylococcus aureus" group_label="condition not met"
smiles_representation=CCCC[C@H](CN(O)C=O)C(=O)N1C[C@@H](F)C[C@H]1C(=O)Nc1ccc(F)c[n+]1[O-] target="Staphylococcus aureus" group_label="condition not met"
smiles_representation=O=CN(O)C[C@@H](CC1CCCC1)C(=O)N1CC=C[C@H]1C(=O)Nc1ccc(F)cc1 target="Staphylococcus aureus" group_label="condition met"
smiles_representation=CC1(C)S[C@@H]2[C@H](NC(=O)Cc3ccccc3)C(=O)N2[C@H]1C(=O)O target="Staphylococcus aureus" group_label="condition met"
smiles_representation=Cc1cnc(NC(=O)[C@@H]2C[C@H](C)CN2C(=O)[C@H](CC2CCCC2)CN(O)C=O)s1 target="Staphylococcus aureus" group_label="condition not met"
smiles_representation=C=C1C[C@@H](C(=O)Nc2ncc(C)s2)N(C(=O)[C@H](CCCC)CN(O)C=O)C1 target="Staphylococcus aureus" group_label="condition met"
smiles_representation=C=C1C[C@@H](C(=O)N2CCOCC2)N(C(=O)[C@H](CCCC)CN(O)C=O)C1 target="Staphylococcus aureus" group_label="condition not met"
smiles_representation=O=CN(O)C[C@@H](CC1CCCC1)C(=O)N1CC=C[C@H]1C(=O)Nc1ccc(F)c[n+]1[O-] target="Staphylococcus aureus" group_label="condition met"
smiles_representation=Cc1ccc(NC(=O)[C@@H]2C[C@H]3CCCC[C@@H]3N2C(=O)[C@H](CC2CCCC2)CN(O)C=O)nc1 target="Staphylococcus aureus" group_label="condition not met"
smiles_representation=CCCC[C@H](CN(O)C=O)C(=O)N1CC=C[C@H]1C(=O)Nc1ccc(Br)cc1 target="Staphylococcus aureus" group_label="condition not met"
smiles_representation=CCCC[C@H](CN(O)C=O)C(=O)N1CC=C[C@H]1C(=O)N[C@@H](C)c1ccccc1 target="Staphylococcus aureus" group_label="condition not met"
smiles_representation=O=CN(O)C[C@@H](CC1CCCC1)C(=O)N1CC=C[C@H]1C(=O)Nc1ccccc1 target="Staphylococcus aureus" group_label="condition not met"
smiles_representation=CCCC[C@H](CN(O)C=O)C(=O)N1CC=C[C@H]1C(=O)NC1CC1 target="Staphylococcus aureus" group_label="condition not met"

----------
Listing of recorded clearance by entry.
# test_description: Clearance in Sprague-Dawley rat at 5 mg/kg, iv
# Format: ADME, organism-based
# Parameters: dose 5 mg/kg, route intravenous
# stated_conditions: in vivo
value_kind: clearance

smiles_representation=Cc1cnc(NC(=O)[C@@H]2C=CCN2C(=O)[C@H](CC2CCCC2)CN(O)C=O)s1 value_kind=clearance result="18.6 mL/min/kg"
smiles_representation=CCCC[C@H](CN(O)C=O)C(=O)N1CC=C[C@H]1C(=O)Nc1ncc(C)s1 value_kind=clearance result="17 mL/min/kg"
smiles_representation=O=CN(O)C[C@@H](CC1CCCC1)C(=O)N1CC=C[C@H]1C(=O)Nc1ccc(F)c[n+]1[O-] value_kind=clearance result="51.7 mL/min/kg"
smiles_representation=C=C1C[C@@H](C(=O)Nc2ncc(C)s2)N(C(=O)[C@H](CCCC)CN(O)C=O)C1 value_kind=clearance result="4.83 mL/min/kg"
smiles_representation=CCCC[C@H](CN(O)C=O)C(=O)N1CC=C[C@H]1C(=O)Nc1ccc(F)c[n+]1[O-] value_kind=clearance result="46.8 mL/min/kg"
